B1: CPEB3 Ribozyme (parent)
chain: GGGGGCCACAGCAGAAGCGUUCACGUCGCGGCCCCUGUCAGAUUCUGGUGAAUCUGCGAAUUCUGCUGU

variants of: B1; assay: self-cleavage, relative activity (ratio to wild type); higher = more cleavage; co-transcriptional
Think of 0.3 as a floor: if self-cleavage stands on it or above, it is Condition met; beneath it, Condition not met.

Record excerpt, results attached:
G47A C66A ... Condition met
C24G U38A ... Condition not met
G11U C63A ... Condition met
G48C C54A ... Condition met
A42G U64A ... Condition met
G19U U36A ... Condition not met
A10C C32G ... Condition met
C24A A42U ... Condition met

Task: Entry U20A U49C : is its self-cleavage no less than 0.3?
Output: Condition not met

Task: Same question for G41U A60C please.
Output: Condition met

Task: # iterate: U44G U64A
Output: Condition met

Task: Follow-up entry: G1C C54U
Output: Condition not met

Task: Next variant up: A59C U67G
Output: Condition met

Task: Entry G17C U44A please
Output: Condition not met
